This collection of values is drawn from patent US20030148958A1.

The reader will find reported CRF2R EC50 values listed item by item below.
- Target of assay: T1, CRF2R
- T1 sequence (Q13324 whole entry, species assumed, looked up): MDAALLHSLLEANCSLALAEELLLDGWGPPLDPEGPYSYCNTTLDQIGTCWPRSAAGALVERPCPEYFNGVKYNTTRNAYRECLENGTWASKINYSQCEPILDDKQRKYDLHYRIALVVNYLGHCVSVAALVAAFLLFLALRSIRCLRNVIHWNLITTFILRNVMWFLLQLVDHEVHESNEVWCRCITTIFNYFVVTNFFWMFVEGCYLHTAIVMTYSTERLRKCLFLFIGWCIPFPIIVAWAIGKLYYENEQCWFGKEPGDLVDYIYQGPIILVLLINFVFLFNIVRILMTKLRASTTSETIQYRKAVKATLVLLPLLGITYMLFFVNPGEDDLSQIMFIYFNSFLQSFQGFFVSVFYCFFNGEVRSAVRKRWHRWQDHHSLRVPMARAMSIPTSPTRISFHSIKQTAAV
- Experiment: cell-based or functional assay
Ends that are not written are not given here.

[
  {
    "Binder": "ZGPPISIDLPFQLLRKIIEIEKQEKEKQQAANNALLLATI (C-terminal amide) [SEQ ID NO 362]",
    "Quantity unit": "nM",
    "CRF2R EC50": 4.39
  },
  {
    "Binder": "ZGPPISIDLPLQLLRKVIEIEKQEKEKQQAANNALLLATI (C-terminal amide) [SEQ ID NO 349]",
    "Quantity unit": "nM",
    "CRF2R EC50": 13.8
  },
  {
    "Binder": "DNPSLSIDLPLLLLRTLLELARTQSQRERAEQNARIFARV-NH2 [SEQ ID NO 340]",
    "Quantity unit": "nM",
    "CRF2R EC50": 7.99
  },
  {
    "Binder": "DNPSLSIDLPLLLLRTLLELEKTQSQRERAEQNAIIFASV-NH2 [SEQ ID NO 346]",
    "Quantity unit": "nM",
    "CRF2R EC50": 8.48
  },
  {
    "Binder": "ZGPPISIDLPQILLRKVIEIEKQEKEKQQAANNALLLATI (C-terminal amide) [SEQ ID NO 299]",
    "Quantity unit": "nM",
    "CRF2R EC50": 46.4
  },
  {
    "Binder": "IVLSLDVPIGLLQILLEQARHAHAHAHAHAQAHILAHV-NH2 [SEQ ID NO 369]",
    "Quantity unit": "nM",
    "CRF2R EC50": 100
  }
]
